Biological target: CAMK1D (Homo sapiens (Human))
Sequence (Q8IU85 1-333): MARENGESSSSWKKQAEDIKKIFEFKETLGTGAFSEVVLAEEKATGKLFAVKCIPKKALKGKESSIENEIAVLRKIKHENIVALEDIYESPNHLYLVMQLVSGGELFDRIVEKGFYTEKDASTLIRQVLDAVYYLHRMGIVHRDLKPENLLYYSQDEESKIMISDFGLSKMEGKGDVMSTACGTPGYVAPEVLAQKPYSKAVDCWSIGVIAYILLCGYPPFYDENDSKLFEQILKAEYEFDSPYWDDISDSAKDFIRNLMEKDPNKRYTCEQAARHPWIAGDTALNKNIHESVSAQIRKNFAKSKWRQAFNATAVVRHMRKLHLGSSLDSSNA
Assay: Tm-Shift assay (thermal melting, SYPRO Orange)
Type: binding
Conditions: read-out: CAMK1d Tm-Shift
Structures can show the parent of a compound that is named as a salt.
We use 10 °C as the dividing line for ΔTm at 10 µM: on or above the line is Condition met, below is Condition not met.

- compound: "CC1(C)COCCN1C(=O)c1cc(Nc2nc(N3CCC[C@H](N)C3)ncc2C(N)=O)cc(C(F)(F)F)c1 [Example 32]"
  target.desc: "CAMK1D (Homo sapiens (Human))"
  discrete.label: "Condition met"
- compound: "CC(C)(C)c1cc(Nc2nc(N3CCC[C@H](N)C3)ncc2C(N)=O)cc(C(C)(C)C)c1 [Example 3]"
  target.desc: "CAMK1D (Homo sapiens (Human))"
  discrete.label: "Condition met"
- compound: "CC(C)(C)c1cc(Nc2nc(N3CCC[C@H](N)C3)ncc2C(N)=O)cc(S(=O)(=O)N2CCCC2)c1 [Example 103]"
  target.desc: "CAMK1D (Homo sapiens (Human))"
  discrete.label: "Condition met"
- compound: "CC(C)(C)c1cccc(Nc2nc(N3CCCC(N)C3)ncc2C(N)=O)c1 (stereo not drawn) [Example 1]"
  target.desc: "CAMK1D (Homo sapiens (Human))"
  discrete.label: "Condition met"
- compound: "COC1(c2cc(Nc3nc(N4CCC[C@H](N)C4)ncc3C(N)=O)cc(C(F)(F)F)c2)CC1 [Example 122]"
  target.desc: "CAMK1D (Homo sapiens (Human))"
  discrete.label: "Condition not met"
- compound: "CC(C)(C)c1cc(Nc2nc(N3CCC[C@H](N)C3)ncc2C(N)=O)cc(C(=O)N2CCCC2)c1 [Example 28]"
  target.desc: "CAMK1D (Homo sapiens (Human))"
  discrete.label: "Condition met"
- compound: "COC(=O)c1cc(Nc2nc(N3CCC[C@H](N)C3)ncc2C(N)=O)cc(C(C)(C)C#N)c1 [Example 45]"
  target.desc: "CAMK1D (Homo sapiens (Human))"
  discrete.label: "Condition met"
- compound: "Cc1ccccc1-c1cc(Nc2nc(N3CCC[C@H](N)C3)ncc2C(N)=O)cc(C(=O)N2CCOCC2)c1 [Example 44]"
  target.desc: "CAMK1D (Homo sapiens (Human))"
  discrete.label: "Condition met"
- compound: "CC(C)(C)c1cc(Nc2nc(N3CCC[C@@H](N)C3)ncc2C(N)=O)cc(C(C)(C)C)c1 [Example 7, hydrochloride]"
  target.desc: "CAMK1D (Homo sapiens (Human))"
  discrete.label: "Condition met"
- compound: "CNS(=O)(=O)c1cc(Nc2nc(Cl)ncc2C(N)=O)cc(C(F)(F)F)c1 [Example 108]"
  target.desc: "CAMK1D (Homo sapiens (Human))"
  discrete.label: "Condition met"
- compound: "CC(C)(C)c1cc(Nc2nc(N3CCC[C@H](N)C3)ncc2C(N)=O)cc(C(=O)N2CCOCC2)c1 [Example 29]"
  target.desc: "CAMK1D (Homo sapiens (Human))"
  discrete.label: "Condition met"
- compound: "CC(C)(C#N)c1cccc(Nc2nc(N3CCC[C@H](N)C3)ncc2C(N)=O)c1 [Example 4]"
  target.desc: "CAMK1D (Homo sapiens (Human))"
  discrete.label: "Condition not met"
- compound: "CC(C)(C)c1cc(Nc2nc(N3CCCC(N)C3)ncc2C(N)=O)cc(C(C)(C)C)c1 (stereo not drawn) [Example 2]"
  target.desc: "CAMK1D (Homo sapiens (Human))"
  discrete.label: "Condition met"
